Data origin: the supplement of paper PMC10724198

Test system: Saccharomyces cerevisiae;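 further: PSI is a weighted mean of sequencing reads over stability bins, variants kept only with over 10 reads, mCherry proximal and sfGFP distal, peptide attached via GGGS linker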
Assay: protein stability index of tFT-peptide fusion (C-terminal peptide) (PSI (0-1 scale)); higher = more stable (slower turnover)
Conditions: genetic background: wild type; temperature: 30 C

{"residue string": "PFPPYSLPLPSP", "protein stability index": 0.759}
{"residue string": "AGGLGSGGSRER", "protein stability index": 0.661}
{"residue string": "IKKKKKKTPKNM", "protein stability index": 0.714}
{"residue string": "ELKVVVTPLVPS", "protein stability index": 0.588}
{"residue string": "GFSSVPFFPLSR", "protein stability index": 0.714}
{"residue string": "PYPVRSRPPAPA", "protein stability index": 0.673}
{"residue string": "SWCDKGSCLVDE", "protein stability index": 0.695}
{"residue string": "WLVGEWPGRWGR", "protein stability index": 0.728}
